target: recombinant human Syk (GST-hSyk fusion protein) (Homo sapiens, UniProt P43405); construct: purchased Carna Biosciences 08-176; test: Homogeneous Time-Resolved Fluorescence (HTRF) assay for the recombinant human Syk enzyme; type: biochemical; conditions: 10-dose titration, 25 μM ATP; read-out: rhSYK IC50
Exercise: for every item that follows, state its recorded IC50.
Kindly format the answer as number then unit.

Solved cases (3 shown):
molecule: Cc1cc(Nc2nccc(C(F)(F)F)n2)cc(-c2cnn3ccccc23)c1 [Example 1.1]
IC50: 0.0658 µM
--
molecule: Cc1cc(Nc2nccc(C(F)F)n2)cc(-c2cnn(CC3OC(=O)NC3CO)c2)c1 (single isomer, unassigned) [Example 33.1]
IC50: 0.0016 µM
--
molecule: Cc1cc(Nc2ncccn2)cc(-c2cnn(C(C)c3ccc(C(N)=O)cc3)c2)c1 (single isomer, unassigned) [Example 28.1]
IC50: 0.0575 µM

Please examine the following record next.
I have this molecule here, Cc1cc(Nc2nccc(C(F)F)n2)cc(-c2cnn(C3CCC(C)(C)C(O)C3O)c2)c1 (stereo not shown) [Example 22.7] , and I need its recorded IC50.
0.0026 µM
